B1: C1orf137 (parent)
chain: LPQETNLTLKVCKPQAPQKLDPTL

Variants of: B1
Experiment: protein stability index of a GFP-peptide fusion (GPS, HEK-293T) (PSI 1-6); higher = more stable;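 note: lentivirally expressed fusions sorted by FACS into six bins by GFP to DsRed ratio, PSI derived from sequencing read proportions per bin multiplied by bin number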
Details: c terminus: a fixed tail appended
readout_kind: protein stability index
# print the numeric value only

Previously resolved entries follow.
residue_codes	protein stability index
LPQETNLTLKVCKPKAPQKLDPTL	3.69
LPQNTNLTLKVCKPQAPQKLDPTL	3.94
LPQETNLTLKSCKPQAPQKLDPTL	4.19
LPQETNLTLAVCKPQAPQKLDPTL	4.61

Look up protein stability index: LPQEFNLTLKVCKPQAPQKLDPTL 2.77

Look up protein stability index: LPQETNLTLKVCKPQAPQKLDWTL 2.83

Look up protein stability index: LPQETNLTLKVCKPQAPQKPDPTL 4.48

Look up protein stability index: LPQETNLTIKVCKPQAPQKLDPTL 4

Look up protein stability index: LPQETNLTLKVCEPQAPQKLDPTL 4.69

Look up protein stability index: LPQETNLTLKVCKPQAPQKLDPTW 3.3

Look up protein stability index: LPQETNLTLKVCKPVAPQKLDPTL 3.65

Look up protein stability index: LPQETNLTLKVCKPQEPQKLDPTL 4.45

Look up protein stability index: LPQETNLTLKVCKPQAPQKLDCTL 2.95

Look up protein stability index: LPQETNLTLKVCKWQAPQKLDPTL 3.47

Look up protein stability index: LPQETNLTLKVCKPQAPQKLDHTL 3.13

Look up protein stability index: LPQETNLTLKVCKPQAPQKQDPTL 4.47

Look up protein stability index: LPQETNMTLKVCKPQAPQKLDPTL 4.25

Look up protein stability index: LPQETNLTLKVHKPQAPQKLDPTL 4.66

Look up protein stability index: LPQECNLTLKVCKPQAPQKLDPTL 2.99

Look up protein stability index: LPQETNLTLKVCKPQAPQKLDPHL 3.44

Look up protein stability index: LPQETNLTNKVCKPQAPQKLDPTL 4.54

Look up protein stability index: LPQETNLTLKICKPQAPQKLDPTL 3.24

Look up protein stability index: LPQETNLTLKVCKKQAPQKLDPTL 4.1

Look up protein stability index: LPQETNLTLKVCKPQAPKKLDPTL 3.97

Look up protein stability index: LPQENNLTLKVCKPQAPQKLDPTL 3.69
